GI50 for assorted compounds
Tested on: LoVo-Dox
Assay: SRB colorimetric assay of cell growth and viability, LoVo-Dox
Format: cell-based, human
Conditions: 48 hours exposure
Description: The finality of this assay is to interrupt the growth of a “in vitro” tumor cell culture by means a continued exhibition of the cells to the sample to be testing. A colorimetric type of assay, using sulforhodamine B (SRB) reaction has been adapted for a quantitative measurement of cell growth and viability [following the technique described by Philip Skehan, et al. (1990), New colorimetric cytotoxicity assay for anticancer drug screening, J. Natl. Cancer Inst., 82:1107-1112]. […]
Where a SMILES comes first, the peptide text is derived from it. Bridges are numbered along the chain shown (N, C = ends). [ ]: non-standard residue; d: D form. The star is where a group is joined. d(aIle) = CC[C@H](C)[C@@H](N)C(=O)O; d(aThr) = C[C@@H](O)[C@@H](N)C(=O)O; Hexanoyl(5-Me) = CC(C)CCCC(=O)*; Myristoyl = CCCCCCCCCCCCCC(=O)*; Orn = NCCC[C@H](N)C(=O)O; Dhb = C/C=C(\N)C(=O)O
MEASURED_ENDPOINT: GI50 (nM)

C/C=C1\NC(=O)[C@H](Cc2ccccc2)NC(=O)[C@@H](C(C)C)NC(=O)[C@@H]([C@@H](C)CC)NC(=O)[C@H](NC(=O)[C@H](NC(=O)[C@H](CCCN)NC(=O)[C@H]2CCCN2C(=O)[C@H](NC(=O)[C@@H](NC(=O)[C@@H](NC(=O)[C@H](NC(=O)CCCCC(C)=O)C(C)C)[C@@H](C)O)C(C)C)C(C)C)[C@@H](C)CC)[C@@H](C)OC(=O)[C@H](C(C)C)NC1=O [Compound 27, [6-OHep^14]-KF]; 2140
C/C=C1\NC(=O)[C@H](Cc2ccccc2)NC(=O)[C@@H](C(C)C)NC(=O)[C@@H]([C@@H](C)CC)NC(=O)[C@H](NC(=O)[C@H](NC(=O)[C@H](CCCN)NC(=O)[C@H]2CCCN2C(=O)[C@H](NC(=O)[C@@H](NC(=O)[C@@H](NC(=O)[C@H]2CCCN2C(=O)CCCC(C)C)[C@@H](C)O)C(C)C)C(C)C)[C@@H](C)CC)[C@@H](C)OC(=O)[C@H](C(C)C)NC1=O [Compound 37, [D-Pro^13]-KF]; 1780
C/C=C1\NC(=O)[C@H](Cc2ccccc2)NC(=O)[C@@H](C(C)C)NC(=O)[C@@H]([C@@H](C)CC)NC(=O)[C@H](NC(=O)[C@H](NC(=O)[C@H](CCCN)NC(=O)[C@H]2CCCN2C(=O)[C@H](NC(=O)[C@@H](NC(=O)[C@@H](NC(=O)[C@@H](Cc2ccccc2)NC(=O)CCCC(C)C)[C@@H](C)O)C(C)C)C(C)C)[C@@H](C)CC)[C@@H](C)OC(=O)[C@H](C(C)C)NC1=O [Compound 36, [D-Phe^13]-KF]; 300
C/C=C1\NC(=O)[C@H](Cc2ccccc2)NC(=O)[C@@H](C(C)C)NC(=O)[C@@H]([C@@H](C)CC)NC(=O)[C@H](NC(=O)[C@H](NC(=O)[C@H](CCCN)NC(=O)[C@H]2CCCN2C(=O)[C@H](NC(=O)[C@@H](NC(=O)[C@H](C)NC(=O)CCCC(C)C)C(C)C)C(C)C)[C@@H](C)CC)[C@@H](C)OC(=O)[C@H](C(C)C)NC1=O [Compound 52, [Ala^12, noD-Val^13]-KF] ({Hexanoyl(5-Me)}-AV[dV][dP][Orn][d(aIle)][d(aThr)][d(aIle)][dV]F[Dhb]V; ester 7-C); 7410
C/C=C1\NC(=O)[C@H](Cc2ccccc2)NC(=O)[C@@H](C(C)C)NC(=O)[C@@H]([C@@H](C)CC)NC(=O)[C@H](NC(=O)[C@H](NC(=O)[C@H](CCCCN)NC(=O)[C@H]2CCCN2C(=O)[C@H](NC(=O)[C@@H](NC(=O)[C@@H](NC(=O)[C@H](NC(=O)CC[C@@H](C)CC)C(C)C)[C@@H](C)O)C(C)C)C(C)C)[C@@H](C)CC)[C@@H](C)OC(=O)[C@H](C(C)C)NC1=O [Compound 30, [Lys^8, (4S)-MeHex^14]-KF]; 164
C/C=C1\NC(=O)[C@H](Cc2ccccc2)NC(=O)[C@@H](C(C)C)NC(=O)[C@@H]([C@@H](C)CC)NC(=O)[C@H](NC(=O)[C@H](NC(=O)[C@H](CCCN)NC(=O)[C@H]2CCCN2C(=O)[C@H](NC(=O)CCCCCCCCCCCCC)C(C)C)[C@@H](C)CC)[C@@H](C)OC(=O)[C@H](C(C)C)NC1=O [Compound 32] (Myristoyl-[dV][dP][Orn][d(aIle)][d(aThr)][d(aIle)][dV]F[Dhb]V; ester 5-C); 2150
C/C=C1\NC(=O)[C@H](Cc2ccccc2)NC(=O)[C@@H](C(C)C)NC(=O)[C@@H]([C@@H](C)CC)NC(=O)[C@H](NC(=O)[C@H](NC(=O)[C@H](CCCCN)NC(=O)[C@H]2CCCN2C(=O)[C@H](NC(=O)[C@@H](NC(=O)[C@@H](NC(=O)[C@H](NC(=O)CCCC(C)C)C(C)C)[C@@H](C)O)C(C)C)C(C)C)[C@@H](C)CC)[C@@H](C)OC(=O)[C@H](C(C)C)NC1=O [Compound 5, [Lys^8]-KF]; 162
C/C=C1\NC(=O)[C@H](Cc2ccccc2)NC(=O)[C@@H](C(C)C)NC(=O)[C@@H]([C@@H](C)CC)NC(=O)[C@H](NC(=O)[C@H](NC(=O)[C@H](CCCN)NC(=O)[C@H]2CCCN2C(=O)[C@H](NC(=O)[C@@H](NC(=O)[C@@H](NC(=O)[C@H](NC(=O)Cc2ccc(C(F)(F)F)cc2)C(C)C)[C@@H](C)O)C(C)C)C(C)C)[C@@H](C)CC)[C@@H](C)OC(=O)[C@H](C(C)C)NC1=O [Compound 25, [p-CF3PhAc^14]-KF]; 176
C/C=C1\NC(=O)[C@H](Cc2ccccc2)NC(=O)[C@@H](C(C)C)NC(=O)[C@@H]([C@@H](C)CC)NC(=O)[C@H](NC(=O)[C@H](NC(=O)[C@H](CCCN)NC(=O)[C@H]2CCCN2C(=O)[C@H](NC(=O)[C@@H](NC(=O)[C@@H](NC(=O)[C@@H](CCC(N)=O)NC(=O)CCCC(C)C)[C@@H](C)O)C(C)C)C(C)C)[C@@H](C)CC)[C@@H](C)OC(=O)[C@H](C(C)C)NC1=O [Compound 40, [D-Gln^13]-KF]; 267

---

As shown below, each of these compounds has a reported GI50 value.
Test system: SK-MEL-28
Assay: SRB colorimetric assay of cell growth and viability, SK-MEL-28
Assay type: cell-based, human
Settings: 48 hours exposure
Where a SMILES comes first, the peptide text is derived from it. Bridges are numbered along the chain shown (N, C = ends). [ ]: non-standard residue; d: D form. The star is where a group is joined. d(aIle) = CC[C@H](C)[C@@H](N)C(=O)O; d(aThr) = C[C@@H](O)[C@@H](N)C(=O)O; Hexanoyl(5-Me) = CC(C)CCCC(=O)*; dCha = N[C@H](CC1CCCCC1)C(=O)O; Orn = NCCC[C@H](N)C(=O)O; Dhb = C/C=C(\N)C(=O)O
MEASURED_ENDPOINT: GI50 (nM)

C/C=C1\NC(=O)[C@H](Cc2ccccc2)NC(=O)[C@@H](C(C)C)NC(=O)[C@@H]([C@@H](C)CC)NC(=O)[C@H](NC(=O)[C@H](NC(=O)[C@H](CCCN)NC(=O)[C@H]2CCCN2C(=O)[C@H](NC(=O)[C@@H](NC(=O)[C@@H](NC(=O)[C@H](NC(=O)CCCC(C)C)C(C)C)[C@@H](C)O)C(C)C)C(C)C)[C@@H](C)CC)COC(=O)[C@H](C(C)C)NC1=O [Compound 3, [D-Ser^6]-KF] ({Hexanoyl(5-Me)}-[dV]TV[dV][dP][Orn][d(aIle)][dS][d(aIle)][dV]F[Dhb]V; ester 8-C); 1570
C/C=C1\NC(=O)[C@H](Cc2ccccc2)NC(=O)[C@@H](C(C)C)NC(=O)[C@@H]([C@@H](C)CC)NC(=O)[C@H](NC(=O)[C@H](NC(=O)[C@H](CCCN)NC(=O)[C@H]2CCCN2C(=O)[C@H](NC(=O)[C@H](CCC(N)=O)NC(=O)[C@@H](NC(=O)[C@H](NC(=O)CCCC(C)C)C(C)C)[C@@H](C)O)C(C)C)[C@@H](C)CC)[C@@H](C)OC(=O)[C@H](C(C)C)NC1=O [Compound 48, [Gln^11]-KF] ({Hexanoyl(5-Me)}-[dV]TQ[dV][dP][Orn][d(aIle)][d(aThr)][d(aIle)][dV]F[Dhb]V; ester 8-C); 6640
C/C=C1\NC(=O)[C@H](Cc2ccccc2)NC(=O)[C@@H](CC2CCCCC2)NC(=O)[C@@H](CC2CCCCC2)NC(=O)[C@H](NC(=O)[C@@H](CC2CCCCC2)NC(=O)[C@H](CCCN)NC(=O)[C@H]2CCCN2C(=O)[C@H](NC(=O)[C@@H](NC(=O)[C@@H](NC(=O)[C@H](NC(=O)CCCC(C)C)C(C)C)[C@@H](C)O)C(C)C)C(C)C)[C@@H](C)OC(=O)[C@H](C(C)C)NC1=O [Compound 11, [D-Cha^4, D-Cha^5, D-Cha^7]-KF] ({Hexanoyl(5-Me)}-[dV]TV[dV][dP][Orn][dCha][d(aThr)][dCha][dCha]F[Dhb]V; ester 8-C); 455

These entries and their values trace back to patent US20070117743A1.
